- target system: T1, recombinant human CD70 (Flag-TNC-CD70) (human, UniProt P32970 39-193)
- T1 construct: extracellular domain; Captured by anti-Flag mAb in ELISA; as 'recombinant human CD70' immobilised on Biacore CM5 chips; TNC is for trimerisation; also called recombinant CD70; human recombinant CD70; not shown: Flag tag and TNC trimerisation domain
- T1 sequence (looked up): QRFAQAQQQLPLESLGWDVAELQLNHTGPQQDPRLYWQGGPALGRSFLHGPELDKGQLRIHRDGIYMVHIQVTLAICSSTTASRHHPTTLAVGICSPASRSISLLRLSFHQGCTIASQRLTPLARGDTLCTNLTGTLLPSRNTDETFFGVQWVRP
- experiment summary: Biacore; CD70 coated CM5 chip; Fab in periplasmic fraction
measured attribute: koff (s⁻¹)
Form entry: value (s⁻¹) — number only.

binder	display unit	koff
41H8 Fab (Fab, V domains shown, Germlined 27B3 Fab, periplasmic fraction) VH: EVQLVESGGGLVQPGGSLRLSCAASGFTFSVYYMNWVRQAPGKGLEWVSDINNEGGTTYYADSVKGRFTISRDNSKNTLYLQMNSLRAEDTAVYYCARDAGYSNHVPIFDSWGQGTQVTVAS VL: QAVVTQEPSFSVSPGGTVTLTCGLTSGSVTSTNFPTWYQQTPGQAPRLLIYNTNSRHSGVPDRFSGSILGNKAALTITGAQPEDESDYFCALFISNPSVEFGGGTQLTVLG	s⁻¹	0.00022

Note: attention shifts to another entry.
Name the recorded koff for 53G1 Fab (Fab, V domains shown, Germlined 27B3 Fab, periplasmic fraction) VH: EVQLVESGGGLVQPGGSLRLSCAASGFTFSVYYMNWVRQAPGKGLEWVSDINNEGGTTYYADSVKGRFTISRDNAKNTLYLQMNSLKPEDTAVYYCVRDAGYSNHVPIFDSWGQGTTVIVSS VL: QTVVTQEPSFSVSPGGTVTLTCGLTSGSVTSTNFPTWYQQTPGQAPRLLIYNTNSRHSGVPSRFSGSILGNKAALTITGAQADDESDYFCALFISNPSVEFGGGTQLTVLG .
0.0002
